Values of IC50 reported for UniProt O60341 appear below.
PARAMETER_MEASURED: IC50

>>> measured_result("Cn1cc2cc(-n3nc(NC[C@H]4CCNC4)cc3-c3ccc(C#N)c(F)c3)ccc2n1 [Example 21S]")
"< 500 nM"
>>> measured_result("CN1CCN(c2cccc(-n3nc(NC[C@H]4CCC[C@H](N)C4)cc3-c3ccc(C#N)c(F)c3)c2)CC1 [Example 45]")
"1000 to 10000 nM"
>>> measured_result("Cc1ccc(-n2nc(NC[C@@H]3CCC[C@@H](N)C3)cc2-c2ccc(C#N)c(F)c2)cc1 [Example 12RR]")
"500 to 1000 nM"
>>> measured_result("Cn1ccc2cc(-n3nc(NCC4CCC[C@H](N)C4)cc3-c3ccc(C#N)c(F)c3)ccc21 (stereo partly shown) [Example 66]")
"< 500 nM"
>>> measured_result("Cn1ncc2cc(-n3nc(NCC45CCN(CC4)CC5)cc3-c3ccc(C#N)c(F)c3)ccc21 [Example 23]")
"< 500 nM"
>>> measured_result("COc1ccc(-n2nc(NC[C@@H]3CCC[C@@H](CN)C3)cc2-c2ccc(C#N)c(F)c2)cc1 [Example 78]")
"< 500 nM"
>>> measured_result("N#Cc1ccc(-c2cc(NC[C@@H]3CCCNCC3)nn2-c2ccc(N3CC[S+]([O-])CC3)cc2)cc1F [Example 91, 2,2,2-trifluoroacetate]")
"< 500 nM"

---

What follows is a record of IC50 for LSD1 (Homo sapiens).
PARAMETER_MEASURED: IC50

>>> measured_result("N#Cc1ccc(-c2cc(NCC3CCCNCC3)nn2-c2ccc(N3CCS(=O)(=O)CC3)cc2F)cc1F (stereo not shown) [Example 107]")
"< 500 nM"
>>> measured_result("N#Cc1ccc(-c2cc(NC[C@H]3CCC[C@H](N)C3)nn2-c2ccc(N3CCC(C#N)CC3)cc2)cc1F [Example 103, 2,2,2-trifluoroacetate]")
"< 500 nM"
>>> measured_result("COc1ccc(-n2nc(NCC3CCCNCC3)cc2-c2ccc(C#N)c(F)c2)cc1 (single isomer, unassigned) [Example 22b]")
"< 500 nM"
>>> measured_result("CC(C)n1ncc2cc(-n3nc(NC[C@@H]4CCC[C@@H](N)C4)cc3-c3ccc(C#N)c(F)c3)ccc21 [Example 73]")
"< 500 nM"
>>> measured_result("N#Cc1ccc(-c2cc(NC[C@H]3CCC[C@H](N)C3)nn2-c2cccc(-n3ccnn3)c2)cc1F [Example 62]")
"500 to 1000 nM"
>>> measured_result("N#Cc1ccc(-c2cc(NCC3CCCNCC3)nn2-c2ccc(C(=O)N3CCCC3)cc2)cc1F (stereo not shown) [Example 25]")
"1000 to 10000 nM"
>>> measured_result("N#Cc1ccc(-c2cc(NC[C@@H]3CCCNCC3)nn2-c2ccc(C(=O)N3CCCC3)cc2)cc1F (single isomer, unassigned) [Example 25a]")
"< 500 nM"

---

What follows is a record of IC50 for UniProt:O60341.
PARAMETER_MEASURED: IC50

>>> measured_result("COc1ccc(-n2nc(NC[C@H]3C[C@@H](N)C3)cc2-c2ccc(C#N)c(F)c2)cc1")
"< 500 nM"
>>> measured_result("Cn1cc(-c2ccc(-n3nc(NC[C@H]4CCC[C@H](N)C4)cc3-c3ccc(C#N)c(F)c3)cc2)cn1")
"< 500 nM"
>>> measured_result("COc1ccc(-n2nc(NC[C@@H]3CCC[C@@H](N)C3)cc2-c2ccc(C#N)c(F)c2)cc1 [Example 11RR]")
"500 to 1000 nM"
>>> measured_result("N#Cc1ccc(-c2cc(NCC3CCCNCC3)nn2-c2ccc(N3CCCC3)cc2)cc1F (stereo not shown)")
"< 500 nM"
>>> measured_result("COC1CCN(c2ccc(-n3nc(NC[C@H]4CCC[C@H](N)C4)cc3-c3ccc(C#N)c(F)c3)c(F)c2)CC1 [Example 92, 2,2,2-trifluoroacetate]")
"< 500 nM"
>>> measured_result("COc1ccc(-n2nc(NCC3CCCNC3)cc2-c2ccc(C#N)c(F)c2)cc1 (stereo not shown)")
"< 500 nM"
>>> measured_result("COc1ccc(-n2nc(NC[C@H]3CCC[C@@H](CN)C3)cc2-c2ccc(C#N)c(F)c2)cc1")
"1000 to 10000 nM"

The reported measurements were obtained from patent US20250032454A1.
